These data points were gathered from PubChem BioAssay (NCATS).

# TEST_SUMMARY: Viability qHTS for spleen associated tyrosine kinase inhibitor (SYKi) drug resistant MV4-11 cells (AID 1963824); note: nearly all actives have a fitted effect of over 35% in size
# STATED_CONDITIONS: SYKi-resistant MV4-11 viability, CellTiter-Glo, 72 h; series mostly up to 45 µM
Records with an inconclusive call do not appear. Active and inactive are the calls of the source. Calls come from the whole dose curve; as a rule, active = well fitted cell-killing curve with a large enough effect; inconclusive = small, poorly fitted or top-dose-only effect, or effect the other way; inactive = no such curve, though single readings can be large or run the other way.
Choose the fitting class; nothing outside yes (active), no (inactive) is accepted.

Consider the worked cases shown below.
CCC(C)C1NC(=O)C2CCCN2C(=O)C(C(C)C)NC(=O)c2ccccc2NC(=O)C(Cc2ccc(O)cc2)NC(=O)C(C)NC(=O)C(C(C)O)NC1=O (stereo not drawn)
no
C=C1CC[C@H](O)CC1=C/C=C1\CCC[C@]2(C)[C@@H]([C@H](C)/C=C/[C@H](C)C(C)C)CC[C@@H]12
yes
Nc1ccc(O)c([N+](=O)[O-])c1
yes

Task item: Could you check what this test reported for COc1ccc(-c2cnc3ccc(NCc4ccc(S(N)(=O)=O)cc4)nn23)cc1OC ?
Reply: yes

Task item: Could you check what this test reported for CCCCCCCCCCCCCCCCCCO ?
Reply: no

Task item: Could you check what this test reported for COC(=O)C1=CO[C@@H](O[C@@H]2O[C@H](CO)[C@@H](O)[C@H](O)[C@H]2O)[C@H]2[C@@H]1[C@H](O)[C@H](O)[C@]2(C)O ?
Reply: no

Task item: Could you check what this test reported for C=C1C(=O)OC2/C=C(\COC(C)=O)CC/C=C(\C=O)CC(OC(=O)C(C)CC)C12 (stereo not drawn) ?
Reply: yes

Task item: Could you check what this test reported for C=C1[C@H]2CC[C@]3(O)[C@@](CC[C@@H]4[C@](C)(C(=O)O)CCC[C@]43C)(C2)[C@H]1OC(=O)/C(C)=C\C ?
Reply: no
